- Assay Target: human GGTase (Homo sapiens, UniProt P53609)
- Method: Human GGTase inhibition (Hu GG)
- Assay type: biochemical
- Particulars: Table 1 Peptide Analogs; read-out: IC50 (nM) Hu GG
- Source text: As described below, a variety of different compounds were synthesized and tested for inhibitory activity against human and Candida GGTase. Exemplary synthesis schemes for generating prenyltransferase inhibitors useful in the methods and compositions of the present invention are shown in FIGS. 1-56. Tables 1-5 provide Structure-Activity relationship (SAR) data for several different classes of prenyltransferase inhibitors.
Peptide text beside a SMILES is read from it.
I'd be grateful if you could share measured IC50 for these entries.

# query: IC50 of entry NC[C@H](NC(=O)[C@@H](N)CS)C(=O)NCC(=O)Nc1ccc2ccccc2c1 [Compound 89e] (HELM PEPTIDE1{C.[NC[C@H](N[*:1])C(=O)[*:2]].G.[c1ccc2cc(N[*:1])ccc2c1]}$$$$V2.0)
> 1000 nM

Which IC50 value belongs to NC[C@H](NC(=O)[C@@H](N)CS)C(=O)NCc1ccc2c(c1)OCO2 [Compound 89d] ?
> 1000 nM

Could you tell me which IC50 is on file for CC(C)C[C@H](NC(=O)[C@H](Cc1cccc2ccccc12)NC(=O)CNC(=O)[C@@H](N)CS)C(=O)O [Compound 5i] (HELM PEPTIDE1{C.G.[O=C([C@H](Cc1cccc2ccccc12)N[*:1])[*:2]].L}$$$$V2.0) ?
< 500 nM

Any idea what IC50 was measured for NC[C@H](NC(=O)[C@@H](N)CS)C(=O)NCc1cccc2ccccc12 [Compound 89a] ?
> 1000 nM

Data request, read-out IC50, for CC(C)C[C@H](NC(=O)[C@H](Cc1cccc2ccccc12)NC(=O)[C@H](CC(=O)O)NC(=O)[C@@H](N)CS)C(=O)O [Compound 5d] (HELM PEPTIDE1{C.D.[O=C([C@H](Cc1cccc2ccccc12)N[*:1])[*:2]].L}$$$$V2.0)
> 1000 nM

---

- Assay Target: Hu FT (Homo sapiens, UniProt P49356)
- Method: Human FT inhibition (Hu FT)
- Assay type: biochemical
- Particulars: Table 3 Piperidine Analogs
Measurement Name: IC50

I would be grateful if you could share the reported IC50 for N[C@@H](CS)C(=O)N1CCC(C(=O)NCc2cccc(OC(F)(F)F)c2)(c2ccccc2)CC1 [Compound 53p] .
> 1000 nM

Please give the measured IC50 for this compound: N[C@@H](CS)C(=O)N1CCC(C(=O)NCCCn2ccnc2)(c2ccccc2)CC1 [Compound 53j]
> 1000 nM

If you can, please state the reported IC50 value of N[C@@H](CS)C(=O)N1CCC(C(=O)NCCCN2CCOCC2)(c2ccccc2)CC1 [Compound 53f] .
> 1000 nM

# input compound: N[C@@H](CS)C(=O)N1CCC(C(=O)NCc2ccncc2)(c2ccccc2)CC1 [Compound 53k] ; wanted: its IC50
> 1000 nM

# query: IC50 of entry CC(C)C[C@H](NC(=O)C1(c2ccccc2)CCN(C(=O)[C@@H](N)CS)CC1)C(N)=O [Compound 53i]
> 1000 nM

Look up IC50 for this compound: COc1ccccc1CNC(=O)C1(c2ccccc2)CCN(C(=O)[C@@H](N)CS)CC1 [Compound 53u]
> 1000 nM

Give the measured IC50 of N[C@@H](CS)C(=O)N1CCC(C(=O)NCCN2CCCC2)(c2ccccc2)CC1 [Compound 53g] .
> 1000 nM

Consider the compound N#CC1CCC(CNC(=O)C2(c3ccccc3)CCN(C(=O)[C@@H](N)CS)CC2)CC1 (some centres unmarked) [Compound 53n] and give its measured IC50.
> 1000 nM

---

- Assay Target: C. albicans GGPTase (Candida albicans, UniProt Q8J224+Q9Y764)
- Method: biochemical
- Particulars: Table 1; read-out: IC50 (nM) Ca GG
Peptide text beside a SMILES is read from it.
Answer each item with its documented IC50.

Record lookup: for C. albicans GGPTase (Candida albicans, UniProt Q8J224+Q9Y764), what IC50 belongs to NC[C@H](NC(=O)[C@@H](N)CS)C(=O)N1CCC(Cc2ccccc2)CC1 [Compound 89f] ?
< 1000 nM

Which IC50 is reported with C. albicans GGPTase (Candida albicans, UniProt Q8J224+Q9Y764) for this entry: CC(C)C[C@H](NC(=O)[C@H](Cc1cccc2ccccc12)NC(=O)CCNC(=O)[C@@H](N)CS)C(=O)O [Compound 5g] (HELM PEPTIDE1{C.[bAla].[O=C([C@H](Cc1cccc2ccccc12)N[*:1])[*:2]].L}$$$$V2.0) ?
< 1000 nM

Form field - read-out: IC50; system: C. albicans GGPTase (Candida albicans, UniProt Q8J224+Q9Y764); submitted item: NC[C@H](NC(=O)[C@@H](N)CS)C(=O)N1CCC(C(=O)NCc2ccncc2)(c2ccccc2)CC1 [Compound 89c]
< 1000 nM

Quick check: IC50 on C. albicans GGPTase (Candida albicans, UniProt Q8J224+Q9Y764), item NC[C@H](NC(=O)[C@@H](N)CS)C(=O)NCc1cccc(-c2ccccc2)c1 [Compound 89b] ?
< 500 nM

Query for C. albicans GGPTase (Candida albicans, UniProt Q8J224+Q9Y764): what IC50 does the record show for NC[C@H](NC(=O)[C@@H](N)CS)C(=O)NCc1ccc2c(c1)OCO2 [Compound 89d] ?
> 1000 nM

What value of IC50 on C. albicans GGPTase (Candida albicans, UniProt Q8J224+Q9Y764) does CC(C)C[C@H](NC(=O)[C@H](Cc1cccc2ccccc12)NC(=O)[C@@H](N)CNC(=O)[C@@H](N)CS)C(=O)O [Compound 5c] (HELM PEPTIDE1{[N[C@@H](CN[*:3])C(=O)[*:2]].[O=C([C@H](Cc1cccc2ccccc12)N[*:1])[*:2]].L}|PEPTIDE2{C}$PEPTIDE1,PEPTIDE2,1:R3-1:R2$$$V2.0) have?
< 1000 nM

Please state recorded IC50 (tested on C. albicans GGPTase (Candida albicans, UniProt Q8J224+Q9Y764)) of CC(C)C[C@H](NC(=O)[C@H](Cc1ccc2ccccc2c1)NC[C@@H](NC[C@@H](N)CS)C(C)C)C(=O)O
< 1000 nM

Return IC50 measured with C. albicans GGPTase (Candida albicans, UniProt Q8J224+Q9Y764) given this compound: CC(C)C[C@H](NC(=O)[C@H](Cc1cccc2ccccc12)NC(=O)C[C@@H](NC(=O)[C@@H](N)CS)C(N)=O)C(=O)O [Compound 5h] (HELM PEPTIDE1{[O=C([C@H](Cc1cccc2ccccc12)N[*:1])[*:2]].L}|PEPTIDE2{C.[dD].[am]}$PEPTIDE1,PEPTIDE2,1:R1-2:R3$$$V2.0)
< 1000 nM

---

- Assay Target: C. albicans GGPTase (Candida albicans, UniProt Q8J224+Q9Y764)
- Sequence (Q9Y764 1-398): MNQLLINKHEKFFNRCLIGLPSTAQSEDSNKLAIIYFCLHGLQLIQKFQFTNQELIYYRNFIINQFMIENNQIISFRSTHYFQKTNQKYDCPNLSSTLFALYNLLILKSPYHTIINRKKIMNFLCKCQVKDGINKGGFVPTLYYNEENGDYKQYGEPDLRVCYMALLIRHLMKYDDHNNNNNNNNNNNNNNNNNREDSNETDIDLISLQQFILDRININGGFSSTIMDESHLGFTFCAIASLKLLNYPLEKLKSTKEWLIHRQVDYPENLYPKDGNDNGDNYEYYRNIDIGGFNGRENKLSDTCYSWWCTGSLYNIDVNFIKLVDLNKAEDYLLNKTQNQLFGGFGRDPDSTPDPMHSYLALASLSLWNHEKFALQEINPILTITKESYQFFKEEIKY
- Sequence (Q8J224 1-306): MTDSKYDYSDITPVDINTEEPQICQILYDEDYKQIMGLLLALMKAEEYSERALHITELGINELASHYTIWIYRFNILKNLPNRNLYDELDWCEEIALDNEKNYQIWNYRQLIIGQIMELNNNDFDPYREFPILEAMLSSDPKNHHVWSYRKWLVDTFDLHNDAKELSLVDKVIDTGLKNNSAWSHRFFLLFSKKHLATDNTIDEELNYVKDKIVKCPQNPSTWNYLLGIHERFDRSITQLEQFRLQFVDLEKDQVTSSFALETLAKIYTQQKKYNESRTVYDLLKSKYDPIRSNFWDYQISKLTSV
- Method: biochemical
- Particulars: Table 3 Piperidine Analogs; read-out: IC50 (nM) Ca GG
Measurement Name: IC50

Query the reported IC50 for C. albicans GGPTase (Candida albicans, UniProt Q8J224+Q9Y764); item: N[C@@H](CS)C(=O)N1CCC(C(=O)NCc2ccc3c(c2)OCO3)(c2ccccc2)CC1 [Compound 53q]
< 100 nM

Please state recorded IC50 (tested on C. albicans GGPTase (Candida albicans, UniProt Q8J224+Q9Y764)) of N[C@@H](CS)C(=O)N1CCC(C(=O)NCCN2CCCC2)(c2ccccc2)CC1 [Compound 53g]
< 100 nM

Give recorded IC50 with C. albicans GGPTase (Candida albicans, UniProt Q8J224+Q9Y764) for the following compound: N[C@@H](CS)C(=O)N1CCC(C(=O)NCCc2ccc(S(N)(=O)=O)cc2)(c2ccccc2)CC1 [Compound 53m]
> 1000 nM

Give the reported IC50 for N[C@@H](CS)C(=O)N1CCC(C(=O)NCc2nc3ccccc3[nH]2)(c2ccccc2)CC1 [Compound 53h] (system: C. albicans GGPTase (Candida albicans, UniProt Q8J224+Q9Y764)).
< 100 nM

Record lookup: for C. albicans GGPTase (Candida albicans, UniProt Q8J224+Q9Y764), what IC50 belongs to N[C@@H](CS)C(=O)N1CCC(C(=O)NCC2CCCO2)(c2ccccc2)CC1 (stereo partly shown) [Compound 53t] ?
< 100 nM

What is its IC50 for C. albicans GGPTase (Candida albicans, UniProt Q8J224+Q9Y764)? Entry: CCOC(=O)N1CCC(NC(=O)C2(c3ccccc3)CCN(C(=O)[C@@H](N)CS)CC2)CC1 [Compound 53l]
> 1000 nM

Query the reported IC50 for C. albicans GGPTase (Candida albicans, UniProt Q8J224+Q9Y764); item: C[C@H](N)C(=O)N[C@@H](CS)C(=O)N1CCC(C(=O)NCc2ccncc2)(c2ccccc2)CC1 [Compound 96a]
> 1000 nM

Hello, I am looking for reported IC50 with C. albicans GGPTase (Candida albicans, UniProt Q8J224+Q9Y764) for CC(C)C[C@@H](C(=O)O)N(C)C(=O)Cn1c(=O)n(C2CCN(C(=O)[C@@H](N)CS)CC2)c2ccccc21 [Compound 93] . Could you help?
> 1000 nM

Any idea what IC50 came out for N[C@@H](CS)C(=O)N1CCC(C(=O)NCCCCc2ccccc2)(c2ccccc2)CC1 [Compound 53aa] on C. albicans GGPTase (Candida albicans, UniProt Q8J224+Q9Y764)?
< 100 nM

Param readout = IC50; param system = C. albicans GGPTase (Candida albicans, UniProt Q8J224+Q9Y764); param query = N[C@@H](CS)C(=O)N1CCC(C(=O)NC2CCCCC2)(c2ccccc2)CC1 [Compound 53s] ; response: value
< 500 nM

IC50 of N[C@@H](CS)C(=O)N1CCC(C(=O)NCc2ccncc2)(c2ccccc2)CC1 [Compound 53k] on C. albicans GGPTase (Candida albicans, UniProt Q8J224+Q9Y764)?
< 10 nM

Quick check: IC50 on C. albicans GGPTase (Candida albicans, UniProt Q8J224+Q9Y764), item N[C@@H](CS)C(=O)N1CCC(C(=O)NCc2ccccc2)(c2ccccc2)CC1 [Compound 53bb] ?
< 100 nM

Item N[C@@H](CS)C(=O)N1CCC(C(=O)NCC(=O)Nc2ccc3ccccc3c2)(c2ccccc2)CC1 [Compound 53o] with C. albicans GGPTase (Candida albicans, UniProt Q8J224+Q9Y764) - IC50?
< 1000 nM

Provide the documented IC50 with C. albicans GGPTase (Candida albicans, UniProt Q8J224+Q9Y764) as the system for N[C@@H](CS)C(=O)N1CCC(C(=O)NCCc2cccs2)(c2ccccc2)CC1 [Compound 53d]
< 500 nM

Query IC50 on C. albicans GGPTase (Candida albicans, UniProt Q8J224+Q9Y764) for N[C@@H](CS)C(=O)N1CCC(C(=O)NCC(c2ccccc2)c2ccccc2)(c2ccccc2)CC1 [Compound 53y]
< 100 nM

I'm curious: which IC50 was measured for CC(C)C[C@H](NC(=O)C1(c2ccccc2)CCN(C(=O)[C@@H](N)CS)CC1)C(N)=O [Compound 53i] tested on C. albicans GGPTase (Candida albicans, UniProt Q8J224+Q9Y764)?
< 100 nM
